- target or test system: T1, recombinant His-tagged human PD-1 (Acro Biosystems) (human, UniProt Q15116 25-167)
- T1 construct: His-tagged; also called hPD-1
- T1 sequence (Q15116 25-167 limits assumed): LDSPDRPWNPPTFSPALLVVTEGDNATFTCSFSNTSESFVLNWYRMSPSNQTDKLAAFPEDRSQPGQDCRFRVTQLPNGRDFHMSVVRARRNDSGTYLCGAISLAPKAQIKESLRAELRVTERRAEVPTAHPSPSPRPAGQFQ
- assay procedure: SPR Carterra LSA;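 note: antibodies or fusion proteins amine-coupled on an HC30M chip, soluble His-tagged human or cynomolgus PD-1 titrated over them, non-regenerative kinetics, constants fitted from titration curves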
Measured Kd accompanies every entry in the list below.
Unit nM implied. Number only.

Observe how each entry below is paired with its result.
| binder | reported value |
| --- | --- |
| OMC.1.D6-hIgG4 (antibody, V domains shown) VH: EVQLLESGGGLVQPGGSLRLSCAASGFTFSDYYMSWVRQAPGKGLEWVSAISSSGGTIFYADSVKGRFIISRDNSKNTLYLQMNSLRAEDTAVYYCAKHKWNDVYYDAMDVWGQGTTVTVSS VL: QSVLTQPPSASGTPGQRVTISCSGSNSNIGRNLVNWYQQLPGTAPKLLIYTVDQRPSGVPDRFSGSKSGTSASLAISGLASEDEADYYCAAWDSSLNSWVFGGGTKLTVLG | 42 |
| OMC476pG10-hIgG4 (antibody, V domains shown) VH: DVQLVESGGGVVRPGGSLRLSCAASGFTFSIYAMSWVRQAPGEGLEWVSHISASGGSTYYADSVKGRFAISRDNSKNTLYLQMNSLRAEDTAVYYCTTNLGSDYWGLGTLVTVSS VL: QSVLTQPPSASGTPGQRVTISCSGSYSDIGTNYVYWYQQLPGTAPKLLIFATDRRPSGVPDRFSGSKSGTSASLAISGLQSEDEADYYCGTWDDSLNVWVFGGGTKLTVLG | 44 |

Could you now look at the following binder, please?
[in] Fill in: Kd of OMC.2.C6-hIgG4 (antibody, V domains shown) VH: EVQLLESGGGLVQPGGSLRLSCTASGFTFSSYEMQWVRQAPGKGLEWVLGITSSSSHIFYADSVKGRFTVSRDNSKNTLYLQMNSLRAEDTAVYYCTKDLNSYYGLDVWGQGTTVTVSS VL: QSVMTQPPSASGTPGQRVTISCSGSTSNLGNNYVSWYQHLPGTAPKLLIYGNDQRPSGVPDRFSGSKSGTSASLAISGLQSDDEADYYCSSWDASLNVWVFGGGTKLTVLG is ___
[out] 12
